System: Pseudomonas 5 (Pseudomonas baetica)
Experiment description: relative growth (AUC of 72 h growth curve relative to DMSO control, dAUC) (ratio); higher = more growth (less inhibition), active = hit call of the paper;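 active = growth AUC significantly below the DMSO wells by Dunnett test; inactive = the rest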
Test conditions: 20 µM
Possible outcomes: YES = active, NO = inactive

>>> group("CCNC(=O)NC(=O)/C(C#N)=N/OC")
"NO"
>>> group("CO/C=C(/C(=O)OC)c1ccccc1Oc1cc(Oc2ccccc2C#N)ncn1")
"NO"
>>> group("Cc1cccc2sc3nncn3c12")
"NO"
>>> group("O=C(NC(=O)c1c(F)cccc1F)Nc1ccc(Cl)cc1")
"NO"
>>> group("O=C(O)CNCP(=O)(O)O")
"NO"
>>> group("CCSC(C)CC1CC(=O)C(/C(CC)=N/OC/C=C/Cl)=C(O)C1 (mixture of isomers)")
"NO"
>>> group("CCCCc1c(C)nc(NCC)nc1OS(=O)(=O)N(C)C")
"NO"
>>> group("N#Cc1nn(-c2c(Cl)cc(C(F)(F)F)cc2Cl)c(N)c1[S+]([O-])C(F)(F)F (configuration not stated)")
"NO"
>>> group("N#Cc1sc2c(=O)c3ccccc3c(=O)c=2sc1C#N")
"NO"
>>> group("CC1COC(Cn2cncn2)(c2ccc(Oc3ccc(Cl)cc3)cc2Cl)O1 (configuration not stated)")
"NO"
>>> group("Oc1ccc(Cl)cc1Cc1cc(Cl)ccc1O")
"YES"
>>> group("CC1=NNC(=O)N(/N=C/c2cccnc2)C1")
"NO"

###

Tested on: Bacillus 1 (Bacillus foraminis)
Experiment description: relative growth (AUC of 72 h growth curve relative to DMSO control, dAUC) (ratio); higher = more growth (less inhibition), active = hit call of the paper
Test conditions: 20 µM
Answer 0.0 if relative growth is under 1, and 1.0 if it is 1 or more.

>>> group("CC1(C)[C@H](C(=O)O[C@H](C#N)c2cccc(Oc3ccccc3)c2)[C@@H]1C=C(Br)Br")
1.0
>>> group("Cc1cc(C2CC2)nc(Nc2ccccc2)n1")
0.0
>>> group("O=C1C2CC=CCC2C(=O)N1SC(Cl)(Cl)Cl (configuration not stated)")
0.0
>>> group("CCOP(=S)(OCC)Oc1nc(Cl)c(Cl)cc1Cl")
1.0
>>> group("CN/C(=N/CC1CCOC1)N[N+](=O)[O-] (configuration not stated)")
1.0
>>> group("Cc1cc(C(F)(C(F)(F)F)C(F)(F)F)ccc1NC(=O)c1cccc(I)c1C(=O)NC(C)(C)CS(C)(=O)=O")
1.0
>>> group("CC(C)OC(=O)Nc1cccc(Cl)c1")
1.0
>>> group("CC(C)NC(=O)N1CC(=O)N(c2cc(Cl)cc(Cl)c2)C1=O")
0.0
>>> group("O=C1C2(Cl)C3(Cl)C4(Cl)C(Cl)(Cl)C5(Cl)C3(Cl)C1(Cl)C5(Cl)C24Cl (configuration not stated)")
0.0
>>> group("COC(=O)c1ccccc1S(=O)(=O)NC(=O)Nc1nc(C)nc(OC)n1")
1.0
>>> group("C#CCN1C(=O)COc2cc(F)c(N3C(=O)C4=C(CCCC4)C3=O)cc21")
1.0
>>> group("N#Cc1sc2c(=O)c3ccccc3c(=O)c=2sc1C#N")
0.0
>>> group("CC1=NNC(=O)N(/N=C/c2cccnc2)C1")
1.0
>>> group("O=C(NC(=O)c1c(F)cccc1F)Nc1ccc(Cl)cc1")
1.0
>>> group("COc1cc(OC)nc(NC(=O)NS(=O)(=O)c2ncccc2C(=O)N(C)C)n1")
1.0
>>> group("COCC(=O)N(c1c(C)cccc1C)[C@H](C)C(=O)OC")
1.0
>>> group("CS(=O)(=O)c1ccc(C(=O)C2C(=O)CCCC2=O)c([N+](=O)[O-])c1")
0.0
>>> group("Clc1ccc(C(c2ccc(Cl)cc2)C(Cl)(Cl)Cl)cc1")
1.0
>>> group("C[N+](C)(C)CCCl")
0.0
>>> group("CCCCc1c(C)nc(NCC)nc1OS(=O)(=O)N(C)C")
0.0
>>> group("CC(C)OC(=O)C(C(=O)OC(C)C)=C1SCCS1")
1.0
>>> group("Cc1cc(C)nc(Nc2ccccc2)n1")
1.0
>>> group("CCCCN(CCCC)SN(C)C(=O)Oc1cccc2c1OC(C)(C)C2")
1.0
>>> group("N#Cc1cc(Br)c(O)c(Br)c1")
0.0
>>> group("CCSC(C)CC1CC(=O)C(/C(CC)=N/OC/C=C/Cl)=C(O)C1 (mixture of isomers)")
1.0
>>> group("CCc1cc(C)cc(CC)c1-c1c(OC(=O)C(C)(C)C)n2n(c1=O)CCOCC2")
0.0
>>> group("CC(C)(C)[C@@H](O)[C@H](Oc1ccc(Cl)cc1)n1cncn1")
1.0
>>> group("COC(=O)N(OC)c1ccccc1COc1ccn(-c2ccc(Cl)cc2)n1")
1.0
>>> group("N#CCNC(=O)c1cnccc1C(F)(F)F")
1.0
>>> group("CCc1cnc(C2=NC(C)(C(C)C)C(=O)N2)c(C(=O)O)c1 (configuration not stated)")
1.0
>>> group("N#CC(CCc1ccc(Cl)cc1)(Cn1cncn1)c1ccccc1 (configuration not stated)")
0.0
>>> group("CC1(C)C(C=C(Cl)Cl)C1C(=O)OC(C#N)c1cccc(Oc2ccccc2)c1 (configuration not stated)")
1.0
>>> group("CCC(CC)Nc1c([N+](=O)[O-])cc(C)c(C)c1[N+](=O)[O-]")
0.0
>>> group("CC1(C)C(C=C(Cl)Cl)C1C(=O)OC(C#N)c1ccc(F)c(Oc2ccccc2)c1 (configuration not stated)")
0.0
>>> group("CCCN(CCOc1c(Cl)cc(Cl)cc1Cl)C(=O)n1ccnc1")
1.0
>>> group("O=C(O)COc1ccc(Cl)cc1Cl")
1.0
>>> group("ClC1C(Cl)C(Cl)C(Cl)C(Cl)C1Cl (configuration not stated)")
1.0
>>> group("COc1ccc(-c2ccccc2)cc1NNC(=O)OC(C)C")
1.0
>>> group("CCC(C)c1ccccc1OC(=O)NC (configuration not stated)")
1.0

###

System: Flavobacterium 2 (Flavobacterium succinicans)
Experiment description: relative growth (AUC of 72 h growth curve relative to DMSO control, dAUC) (ratio); higher = more growth (less inhibition), active = hit call of the paper
Test conditions: 20 µM
Answer no (0) if relative growth is under 1, and yes (1) if it is 1 or more.

>>> group("CCC(=O)Nc1ccc(Cl)c(Cl)c1")
"no (0)"
>>> group("O=[N+]([O-])/N=C1\\NCCN1Cc1ccc(Cl)nc1")
"yes (1)"
>>> group("COC(=O)c1ccccc1S(=O)(=O)NC(=O)Nc1nc(C)nc(OC)n1")
"yes (1)"
>>> group("CC(C1CC1)C(O)(Cn1cncn1)c1ccc(Cl)cc1 (stereo unspecified)")
"no (0)"

###

System: Pseudomonas 3 (Pseudomonas mandelii)
Experiment description: relative growth (AUC of 72 h growth curve relative to DMSO control, dAUC) (ratio); higher = more growth (less inhibition), active = hit call of the paper
Test conditions: 20 µM
relative growth for assorted molecules
Endpoint: relative growth

>>> experimental_result("CSc1nnc(C(C)(C)C)c(=O)n1N")
0.984
>>> experimental_result("CNC(=O)c1cc(Cl)cc(C)c1NC(=O)c1cc(Br)nn1-c1ncccc1Cl")
0.958
>>> experimental_result("CCCCC(C#N)(Cn1cncn1)c1ccc(Cl)cc1 (stereo not drawn)")
0.993
>>> experimental_result("O=C(O)COc1ccc(Cl)cc1Cl")
1.04
>>> experimental_result("CC1=NNC(=O)N(/N=C/c2cccnc2)C1")
0.986
>>> experimental_result("CO/C=C(/C(=O)OC)c1ccccc1Oc1cc(Oc2ccccc2C#N)ncn1")
1.06
>>> experimental_result("CC(COc1ccc(Oc2ccccc2)cc1)Oc1ccccn1 (stereo not drawn)")
1.01
>>> experimental_result("Cc1cc(C2CC2)nc(Nc2ccccc2)n1")
1.03
>>> experimental_result("CCC(CC)Nc1c([N+](=O)[O-])cc(C)c(C)c1[N+](=O)[O-]")
1.03
>>> experimental_result("OC(Cc1ccccc1Cl)(Cn1nc[nH]c1=S)C1(Cl)CC1 (stereo not drawn)")
1.01
>>> experimental_result("CCOc1ccc(C(C)(C)COCc2cccc(Oc3ccccc3)c2)cc1")
1.02
>>> experimental_result("Oc1ccccc1-c1ccccc1")
1.01
>>> experimental_result("O=C(O)CNCP(=O)(O)O")
1.05

###

System: Microbacterium 1 (Microbacterium arborescens)
Experiment description: relative growth (AUC of 72 h growth curve relative to DMSO control, dAUC) (ratio); higher = more growth (less inhibition), active = hit call of the paper
Test conditions: 20 µM
relative growth for assorted compounds
Endpoint: relative growth

>>> experimental_result("COP(=S)(OC)Oc1ccc(SC)c(C)c1")
0.99
>>> experimental_result("CCC(C)c1ccccc1OC(=O)NC (stereo unspecified)")
1.04
>>> experimental_result("N#Cc1cc(Br)c(O)c(Br)c1")
1.05
>>> experimental_result("COc1cc(OC)nc(NC(=O)NS(=O)(=O)c2ncccc2C(=O)N(C)C)n1")
1.04
>>> experimental_result("COP(=S)(OC)SCN1C(=O)c2ccccc2C1=O")
0.992
>>> experimental_result("CCOC(=O)OC1=C(c2cc(C)ccc2C)C(=O)N[C@]12CC[C@@H](OC)CC2")
1.01
